molecular target: SARS-CoV-2 M^pro (Severe acute respiratory syndrome coronavirus 2, UniProt P0DTD1); experiment: IC50 measurement on M^pro; type: biochemical
pIC50: −log10 of the molar value.

chemSmiles	pIC50
Cc1ccccc1NC(=S)N/N=C/c1ccccc1O	4.68
